Item-by-item account of water adsorbed at 90% RH
- Details: moisture sorption, 25° C., 90% RH
- Method: Approximately 10 mg of the sample was analyzed in a Pyrex bulb. Each scan utilized a step size of 10% RH and a maximum equilibration time of four hours per point. The sample was dried for one hour at 80° C. following the desorption scan to obtain the dry sample weight and then it was analyzed by XRPD.
Form entry: value (wt %) — number only.

Recorded results for 3 molecules are shown here.
[
  {
    "Molecule": "Brc1c(NC2=NCCN2)ccc2nccnc12.Brc1c(NC2=NCCN2)ccc2nccnc12.O=C(O)c1cc2ccccc2c(Cc2c(O)c(C(=O)O)cc3ccccc23)c1O [Form E, brimonidine hemi-pamoate]",
    "water adsorbed at 90% RH [wt %]": 4.2
  },
  {
    "Molecule": "Brc1c(NC2=NCCN2)ccc2nccnc12.Brc1c(NC2=NCCN2)ccc2nccnc12.O=C(O)c1cc2ccccc2c(Cc2c(O)c(C(=O)O)cc3ccccc23)c1O [Form C, brimonidine hemi-pamoate]",
    "water adsorbed at 90% RH [wt %]": 13.0
  },
  {
    "Molecule": "Brc1c(NC2=NCCN2)ccc2nccnc12.Brc1c(NC2=NCCN2)ccc2nccnc12.O=C(O)c1cc2ccccc2c(Cc2c(O)c(C(=O)O)cc3ccccc23)c1O [Form B, brimonidine hemi-pamoate]",
    "water adsorbed at 90% RH [wt %]": 5.8
  }
]

Incoming: Can you share its water adsorbed at 90% RH? I mean this molecule: Brc1c(NC2=NCCN2)ccc2nccnc12.Brc1c(NC2=NCCN2)ccc2nccnc12.O=C(O)c1cc2ccccc2c(Cc2c(O)c(C(=O)O)cc3ccccc23)c1O [Form A, brimonidine hemi-pamoate]
Outgoing: 2.5

Incoming: Can you share its water adsorbed at 90% RH? I mean this molecule: Brc1c(NC2=NCCN2)ccc2nccnc12.Brc1c(NC2=NCCN2)ccc2nccnc12.O=C(O)c1cc2ccccc2c(Cc2c(O)c(C(=O)O)cc3ccccc23)c1O [Form D, brimonidine hemi-pamoate]
Outgoing: 2.6

====

- Protocol: Competitive slurries of brimonidine hemi-pamoate forms
- Type: physicochemical
- Details: competitive slurry of Forms A, C, D and E in water (1.0 mL), RT, 1 week
Property Name: XRPD (1 week): form

[
  {
    "Compound": "Brc1c(NC2=NCCN2)ccc2nccnc12.Brc1c(NC2=NCCN2)ccc2nccnc12.O=C(O)c1cc2ccccc2c(Cc2c(O)c(C(=O)O)cc3ccccc23)c1O [Form D, brimonidine hemi-pamoate]",
    "Property Name": "XRPD (1 week): form",
    "Recorded Measurement": "Form F"
  },
  {
    "Compound": "Brc1c(NC2=NCCN2)ccc2nccnc12.Brc1c(NC2=NCCN2)ccc2nccnc12.O=C(O)c1cc2ccccc2c(Cc2c(O)c(C(=O)O)cc3ccccc23)c1O [Form A, brimonidine hemi-pamoate]",
    "Property Name": "XRPD (1 week): form",
    "Recorded Measurement": "Form F"
  },
  {
    "Compound": "Brc1c(NC2=NCCN2)ccc2nccnc12.Brc1c(NC2=NCCN2)ccc2nccnc12.O=C(O)c1cc2ccccc2c(Cc2c(O)c(C(=O)O)cc3ccccc23)c1O [Form E, brimonidine hemi-pamoate]",
    "Property Name": "XRPD (1 week): form",
    "Recorded Measurement": "Form F"
  },
  {
    "Compound": "Brc1c(NC2=NCCN2)ccc2nccnc12.Brc1c(NC2=NCCN2)ccc2nccnc12.O=C(O)c1cc2ccccc2c(Cc2c(O)c(C(=O)O)cc3ccccc23)c1O [Form C, brimonidine hemi-pamoate]",
    "Property Name": "XRPD (1 week): form",
    "Recorded Measurement": "Form F"
  }
]

====

- Details: stored uncapped at 60° C., 1 week
Item-by-item account of HPLC (% purity) after thermal stress
Answer by giving the amount and then stating its unit.

[
  {
    "Compound": "Brc1c(NC2=NCCN2)ccc2nccnc12.Brc1c(NC2=NCCN2)ccc2nccnc12.O=C(O)c1cc2ccccc2c(Cc2c(O)c(C(=O)O)cc3ccccc23)c1O [Form D, brimonidine hemi-pamoate]",
    "HPLC (% purity) after thermal stress": "96.7%"
  },
  {
    "Compound": "Brc1c(NC2=NCCN2)ccc2nccnc12.Brc1c(NC2=NCCN2)ccc2nccnc12.O=C(O)c1cc2ccccc2c(Cc2c(O)c(C(=O)O)cc3ccccc23)c1O [Form C, brimonidine hemi-pamoate]",
    "HPLC (% purity) after thermal stress": "97.9%"
  },
  {
    "Compound": "Brc1c(NC2=NCCN2)ccc2nccnc12.Brc1c(NC2=NCCN2)ccc2nccnc12.O=C(O)c1cc2ccccc2c(Cc2c(O)c(C(=O)O)cc3ccccc23)c1O [Form B, brimonidine hemi-pamoate]",
    "HPLC (% purity) after thermal stress": "100.0%"
  }
]

Incoming: Can you share its HPLC (% purity) after thermal stress? I mean this compound: Brc1c(NC2=NCCN2)ccc2nccnc12.Brc1c(NC2=NCCN2)ccc2nccnc12.O=C(O)c1cc2ccccc2c(Cc2c(O)c(C(=O)O)cc3ccccc23)c1O [Form A, brimonidine hemi-pamoate]
Outgoing: 100.0%

====

- Details: moisture sorption analysis

[
  {
    "Compound": "Brc1c(NC2=NCCN2)ccc2nccnc12.Brc1c(NC2=NCCN2)ccc2nccnc12.O=C(O)c1cc2ccccc2c(Cc2c(O)c(C(=O)O)cc3ccccc23)c1O [Form E, brimonidine hemi-pamoate]",
    "hygroscopicity (in words)": "slightly hygroscopic"
  },
  {
    "Compound": "Brc1c(NC2=NCCN2)ccc2nccnc12.Brc1c(NC2=NCCN2)ccc2nccnc12.O=C(O)c1cc2ccccc2c(Cc2c(O)c(C(=O)O)cc3ccccc23)c1O [Form D, brimonidine hemi-pamoate]",
    "hygroscopicity (in words)": "slightly hygroscopic"
  },
  {
    "Compound": "Brc1c(NC2=NCCN2)ccc2nccnc12.Brc1c(NC2=NCCN2)ccc2nccnc12.O=C(O)c1cc2ccccc2c(Cc2c(O)c(C(=O)O)cc3ccccc23)c1O [Form A, brimonidine hemi-pamoate]",
    "hygroscopicity (in words)": "slightly hygroscopic"
  }
]

====

- Details: stored uncapped at 60° C., 1 week
Property Name: XRPD (1 week): crystallinity

[
  {
    "Molecule": "Brc1c(NC2=NCCN2)ccc2nccnc12.Brc1c(NC2=NCCN2)ccc2nccnc12.O=C(O)c1cc2ccccc2c(Cc2c(O)c(C(=O)O)cc3ccccc23)c1O [Form D, brimonidine hemi-pamoate]",
    "Recorded Measurement": "Crystalline"
  },
  {
    "Molecule": "Brc1c(NC2=NCCN2)ccc2nccnc12.Brc1c(NC2=NCCN2)ccc2nccnc12.O=C(O)c1cc2ccccc2c(Cc2c(O)c(C(=O)O)cc3ccccc23)c1O [Form B, brimonidine hemi-pamoate]",
    "Recorded Measurement": "Crystalline"
  },
  {
    "Molecule": "Brc1c(NC2=NCCN2)ccc2nccnc12.Brc1c(NC2=NCCN2)ccc2nccnc12.O=C(O)c1cc2ccccc2c(Cc2c(O)c(C(=O)O)cc3ccccc23)c1O [Form A, brimonidine hemi-pamoate]",
    "Recorded Measurement": "Crystalline"
  }
]
